# STUDY_TARGET: T1, Avi/His-HuIL18BPa (recombinant human IL-18BP isoform A with Avi and poly-His tags) (human, biotinylated with BirA on the Avi tag in some assays)
# T1 chain: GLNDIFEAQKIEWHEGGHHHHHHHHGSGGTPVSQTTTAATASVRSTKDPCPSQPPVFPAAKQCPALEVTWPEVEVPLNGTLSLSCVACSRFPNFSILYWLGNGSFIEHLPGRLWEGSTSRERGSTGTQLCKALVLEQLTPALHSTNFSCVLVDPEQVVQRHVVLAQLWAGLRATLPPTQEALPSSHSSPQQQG
# MEASUREMENT_DESCRIPTION: cell-based or functional assay
MEASUREMENT_TYPE: Fold change of IFNγ at 10 µg/ml vs baseline, human PBMC (fold)
Express it in fold; write the number only.

Examples with their reported Fold change of IFNγ at 10 µg/ml vs baseline, human PBMC follow.
- anti-IL18BP antibody BP-14 (antibody, human IgG1, V domains shown) VH: QVQLVQSGAEVKKPGASVKVSCKASGYTFTGYYMHWVRQAPGQGLEWMGIINPRGGSTSHAQKFQGRVTMTRDTSTSTVYMELSSLRSEDTAVYYCARGLELHWFDPWGQGTLVTVSS VL: DIQMTQSPSSLSASVGDRVTITCRASQNIRSWLAWYQQKPGKAPKLLIYAASSLQSGVPSRFSGSGSGTDFTLTISSLQPEDFATYYCQQANSFPYTFGQGTKLEIK: 8.86
- anti-IL18BP antibody BP-13 (antibody, human IgG1, V domains shown) VH: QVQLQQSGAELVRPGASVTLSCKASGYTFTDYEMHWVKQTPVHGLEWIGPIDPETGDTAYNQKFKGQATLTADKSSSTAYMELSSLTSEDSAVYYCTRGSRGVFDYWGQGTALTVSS VL: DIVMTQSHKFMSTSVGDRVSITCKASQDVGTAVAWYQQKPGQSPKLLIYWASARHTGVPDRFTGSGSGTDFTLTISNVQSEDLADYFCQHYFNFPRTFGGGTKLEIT: 11.8

Now for the binder whose Fold change of IFNγ at 10 µg/ml vs baseline, human PBMC we want.
Req: Quick check: Fold change of IFNγ at 10 µg/ml vs baseline, human PBMC of anti-IL18BP antibody BP-10 (antibody, human IgG1, V domains shown) VH: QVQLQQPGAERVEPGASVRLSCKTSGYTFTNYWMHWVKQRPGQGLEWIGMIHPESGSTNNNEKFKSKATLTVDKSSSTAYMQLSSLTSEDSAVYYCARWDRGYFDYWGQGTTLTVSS VL: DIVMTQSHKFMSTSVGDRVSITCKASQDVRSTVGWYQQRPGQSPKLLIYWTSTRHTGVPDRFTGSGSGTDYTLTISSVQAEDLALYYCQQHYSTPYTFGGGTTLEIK ?
Resp: 15.5
